# experiment_notes: Effect of defaunation compounds on feed intake of sheep
# Assay type: in vivo
# condition_set: after dosing vs pre-dosing intake
assay_metric: Feed Intake

compound_structure=Clc1nc(Cl)nc(Nc2ccc(Br)cc2)n1 assay_metric="Feed Intake" result_value=Good
compound_structure=CN(c1ccc(Cl)c(Cl)c1)c1nc(Cl)nc(Cl)n1 assay_metric="Feed Intake" result_value=Good
compound_structure=Clc1ccc(Nc2nc(Cl)nc(Cl)n2)cc1 assay_metric="Feed Intake" result_value=Fair
compound_structure=Clc1nc(Cl)nc(Nc2cccc(I)c2)n1 assay_metric="Feed Intake" result_value=Good
compound_structure=CC(C)c1ccc(Nc2nc(Cl)nc(Cl)n2)cc1 assay_metric="Feed Intake" result_value=Good
compound_structure=COc1ccc(Nc2nc(Cl)nc(Cl)n2)cc1OC assay_metric="Feed Intake" result_value=Fair
compound_structure=Clc1nc(Cl)nc(Nc2cc(Cl)c(Cl)c(Cl)c2)n1 assay_metric="Feed Intake" result_value=Good

====

# Test system: mice
# experiment_notes: Mouse safety assessment
# Assay type: in vivo
# condition_set: oral gavage, 830, 415 and 217 mg/kg, observed for 2 days
assay_metric: Mouse Safety Assessment

compound_structure=COc1ccc(Nc2nc(Cl)nc(Cl)n2)cc1 subject_of_test=mice result_value=Good
compound_structure=Clc1nc(Cl)nc(Nc2ccc(Cl)c(Cl)c2)n1 subject_of_test=mice result_value="Fair (>2 mice sick)"
compound_structure=CC(C)(C)c1ccc(Nc2nc(Cl)nc(Cl)n2)cc1 subject_of_test=mice result_value="Fair (>2 mice sick)"
compound_structure=Cc1ccc(Nc2nc(Cl)nc(Cl)n2)cc1Cl subject_of_test=mice result_value="Fair (>2 mice sick)"
compound_structure=Clc1nc(Cl)nc(Nc2ccc(I)cc2)n1 subject_of_test=mice result_value="Fair (>2 mice sick)"
compound_structure=Clc1nc(Cl)nc(Nc2cc(Cl)c(Cl)c(Cl)c2)n1 subject_of_test=mice result_value=Good
compound_structure=Cc1ccc(Nc2nc(Cl)nc(Cl)n2)cc1C subject_of_test=mice result_value="Fair (>2 mice sick)"
compound_structure=CSc1ccc(Nc2nc(Cl)nc(Cl)n2)cc1 subject_of_test=mice result_value="Fair (>2 mice sick)"
compound_structure=Clc1nc(Cl)nc(Nc2cccc(I)c2)n1 subject_of_test=mice result_value="Fair (>2 mice sick)"
compound_structure=Cc1cc(C)c(Nc2nc(Cl)nc(Cl)n2)c(C)c1 subject_of_test=mice result_value=Good
compound_structure=CN(c1ccc(Cl)c(Cl)c1)c1nc(Cl)nc(Cl)n1 subject_of_test=mice result_value="Fair (>2 mice sick)"
compound_structure=CSc1cccc(Nc2nc(Cl)nc(Cl)n2)c1 subject_of_test=mice result_value="Fair (>2 mice sick)"
compound_structure=COc1cccc(Nc2nc(Cl)nc(Cl)n2)c1 subject_of_test=mice result_value="Fair (>2 mice sick)"
compound_structure=COc1ccc(Nc2nc(Cl)nc(Cl)n2)cc1OC subject_of_test=mice result_value=Good
compound_structure=N#Cc1cccc(Nc2nc(Cl)nc(Cl)n2)c1 subject_of_test=mice result_value="Fair (>2 mice sick)"
compound_structure=CC(C)c1ccc(Nc2nc(Cl)nc(Cl)n2)cc1 subject_of_test=mice result_value="Fair (>2 mice sick)"
compound_structure=Cc1ccccc1Nc1nc(Cl)nc(Cl)n1 subject_of_test=mice result_value=Good

====

# System: rumen bacteria
# experiment_notes: Bacterial viability in sheep after administering defaunation compounds; also: key: Poor: reduction in gas; Okay: same as predosing levels; Good: increase relative to predosing levels
# Type: in vivo
# condition_set: gas production one week after dosing vs pre-dosing
assay_metric: Bacterial Viability

compound_structure=Oc1ccc(Nc2nc(Cl)nc(Cl)n2)cc1 result_value=Poor
compound_structure=Cc1cc(C)c(Nc2nc(Cl)nc(Cl)n2)c(C)c1 result_value=Good
compound_structure=Cc1ccccc1Nc1nc(Cl)nc(Cl)n1 result_value=Okay
compound_structure=CSc1ccc(Nc2nc(Cl)nc(Cl)n2)cc1 result_value=Okay
compound_structure=CSc1cccc(Nc2nc(Cl)nc(Cl)n2)c1 result_value=Good
compound_structure=Clc1nc(Cl)nc(Nc2cccc(I)c2)n1 result_value=Okay
compound_structure=Clc1ccc(Nc2nc(Cl)nc(Cl)n2)cc1 result_value=Good
compound_structure=Cc1ccc(Nc2nc(Cl)nc(Cl)n2)cc1 result_value=Okay
compound_structure=CC(C)(C)c1ccc(Nc2nc(Cl)nc(Cl)n2)cc1 result_value=Okay
compound_structure=Clc1nc(Cl)nc(Nc2ccccc2Cl)n1 result_value=Okay
compound_structure=COc1ccc(Nc2nc(Cl)nc(Cl)n2)cc1OC result_value=Okay
compound_structure=Clc1nc(Cl)nc(Nc2ccc(I)cc2)n1 result_value=Okay
compound_structure=Cc1ccc(Nc2nc(Cl)nc(Cl)n2)c(C)c1 result_value=Good
compound_structure=Cc1ccc(Nc2nc(Cl)nc(Cl)n2)cc1C result_value=Good
compound_structure=CC(C)c1ccc(Nc2nc(Cl)nc(Cl)n2)cc1 result_value=Good
compound_structure=N#Cc1cccc(Nc2nc(Cl)nc(Cl)n2)c1 result_value=Poor
compound_structure=COc1ccc(Nc2nc(Cl)nc(Cl)n2)cc1 result_value=Poor
compound_structure=Cc1ccc(Nc2nc(Cl)nc(Cl)n2)cc1Cl result_value=Okay
compound_structure=Clc1nc(Cl)nc(Nc2cc(Cl)c(Cl)c(Cl)c2)n1 result_value=Okay
compound_structure=CN(c1ccc(Cl)c(Cl)c1)c1nc(Cl)nc(Cl)n1 result_value=Good
compound_structure=Clc1nc(Cl)nc(Nc2ccc(Br)cc2)n1 result_value=Good
compound_structure=Clc1nc(Cl)nc(Nc2ccc(Cl)c(Cl)c2)n1 result_value=Poor
compound_structure=COc1cccc(Nc2nc(Cl)nc(Cl)n2)c1 result_value=Good
compound_structure=O=[N+]([O-])c1cccc(Nc2nc(Cl)nc(Cl)n2)c1 result_value=Good
